Data credit: PubChem BioAssay (NCI)

- System: MCF7 breast
- Test protocol: NCI tumour cell line growth inhibition, 48 h
Property: TGI

CNC(=O)C(CCc1ccccc1)NC(=O)C(CC(=O)NO)CC(C)C (stereo not given)
> 25 µM

Query: Look up and state reported TGI for O=C1CSC(c2ccccc2O)N1c1ccc(-c2ccc(-n3c(-c4ccccc4)nc4ccccc4c3=O)cc2)cc1 (stereo not given)
Reply: > 100 µM

Query: Look up and state reported TGI for COc1cc(/C=C2/SC(c3ccccc3)N(c3cccc(NC(C)=O)c3)C2=O)cc(OC)c1OC (stereo not given)
Reply: > 100 µM

Query: Look up and state reported TGI for CCOC(=O)/C=C/C1=C(c2ccsc2)c2ccc(OC)cc2CC1
Reply: 26.4 µM

Query: Look up and state reported TGI for CC(=O)Oc1ccc2[nH]c3c(C)c4cccc-4ccc3c2c1
Reply: 10.7 µM

====

- System: MOLT-4 leukemia
- Test protocol: NCI tumour cell line growth inhibition, 48 h
Property: TGI

Solved entries (count: 2):
CC(C)=CC(=O)c1[nH]c2ccccc2c1CC(=O)NCCc1cn(C(c2ccccc2)(c2ccccc2)c2ccccc2)cn1
5.49 µM
CCOC(=O)NC(=O)c1cn(CCCOC(=O)CCCCCCCCC(=O)OCCCn2cc(C(=O)NC(=O)OCC)c(=O)n(C)c2=O)c(=O)n(C)c1=O
> 100 µM

Query: Look up and state reported TGI for CCOC(=O)C1(Cc2ccc3c(c2)CCC3)Cc2cc3c(cc2C1=O)CCC3 (centres undefined)
Reply: > 100 µM

Query: Look up and state reported TGI for Brc1ccc(SCN(CSc2ccc(Br)cc2)Cc2ccccc2)cc1
Reply: 6.82 µM

Query: Look up and state reported TGI for CC(=O)Oc1ccc2[nH]c3c(C)c4cccc-4ccc3c2c1
Reply: 9.82 µM

Query: Look up and state reported TGI for O=c1c2c([nH]c3ccccc13)CCCC2
Reply: > 100 µM

Query: Look up and state reported TGI for O=C1O[C@@H](c2ccccc2)C[C@H]1CN1CCOCC1
Reply: > 100 µM

Query: Look up and state reported TGI for O=C1NC(=O)/C(=C/c2c(Cl)nc3sccn23)S1
Reply: > 100 µM

Query: Look up and state reported TGI for C(=N\c1nc2cc3sc(/N=C/c4cccs4)nc3cc2s1)/c1cccs1
Reply: > 100 µM

====

- Tested on: RXF 393 renal
- Test protocol: NCI tumour cell line growth inhibition, 48 h
Property: TGI

Solved entries (count: 10):
O=C1CSC(c2ccccc2O)N1c1ccc(-c2ccc(-n3c(-c4ccccc4)nc4ccccc4c3=O)cc2)cc1 (stereo unspecified)
91.9 µM
NCCCCCCn1c(-c2ccc(Br)cc2)csc1=Nc1ccccc1
26.2 µM
O=C(C=P(c1ccccc1)(c1ccccc1)c1ccccc1)c1ccc(-c2cccc([N+](=O)[O-])c2)cc1
9.34 µM
CCn1c2ccccc2c2cc(/C=C(/C#N)C(N)=S)ccc21
39 µM
CC(=O)OC1CC2CC(=O)CC1N2C (stereo unspecified)
> 100 µM
C=C1CC2(OC1=O)C(=O)N(C)c1ccc(I)cc12 (stereo unspecified)
1.18 µM
COc1cc(C2NCCC(c3ccccc3)(c3ccccc3)N2)cc(OC)c1OC (stereo unspecified)
> 100 µM
CCCCC(=O)OC[n+]1cccc(-c2c(COC(=O)NC(C)C)c(COC(=O)NC(C)C)c3n2CCC3)c1
55.2 µM
CC1(C)OC(=O)C(c2cccs2)C(=O)O1
> 100 µM
O=C(ON=c1c2ccccc2ccc2ccccc12)c1ccccc1
23.6 µM

With those in mind, consider the next molecule.
Query: Look up and state reported TGI for COc1ccc(C2/C(=C(\O)c3ccccc3)C(=O)C(O)(CC(=O)c3ccccc3)N2c2ccc(OC)cc2)cc1 (stereo unspecified)
Reply: > 85.1 µM
